Values were extracted from patent US20230080054A1.

Molecular target: human ANO6 (Homo sapiens, UniProt Q4KMQ2)
Construct: expressed in transfected cells
Sequence (Q4KMQ2 1-931 isoform Q4KMQ2-2): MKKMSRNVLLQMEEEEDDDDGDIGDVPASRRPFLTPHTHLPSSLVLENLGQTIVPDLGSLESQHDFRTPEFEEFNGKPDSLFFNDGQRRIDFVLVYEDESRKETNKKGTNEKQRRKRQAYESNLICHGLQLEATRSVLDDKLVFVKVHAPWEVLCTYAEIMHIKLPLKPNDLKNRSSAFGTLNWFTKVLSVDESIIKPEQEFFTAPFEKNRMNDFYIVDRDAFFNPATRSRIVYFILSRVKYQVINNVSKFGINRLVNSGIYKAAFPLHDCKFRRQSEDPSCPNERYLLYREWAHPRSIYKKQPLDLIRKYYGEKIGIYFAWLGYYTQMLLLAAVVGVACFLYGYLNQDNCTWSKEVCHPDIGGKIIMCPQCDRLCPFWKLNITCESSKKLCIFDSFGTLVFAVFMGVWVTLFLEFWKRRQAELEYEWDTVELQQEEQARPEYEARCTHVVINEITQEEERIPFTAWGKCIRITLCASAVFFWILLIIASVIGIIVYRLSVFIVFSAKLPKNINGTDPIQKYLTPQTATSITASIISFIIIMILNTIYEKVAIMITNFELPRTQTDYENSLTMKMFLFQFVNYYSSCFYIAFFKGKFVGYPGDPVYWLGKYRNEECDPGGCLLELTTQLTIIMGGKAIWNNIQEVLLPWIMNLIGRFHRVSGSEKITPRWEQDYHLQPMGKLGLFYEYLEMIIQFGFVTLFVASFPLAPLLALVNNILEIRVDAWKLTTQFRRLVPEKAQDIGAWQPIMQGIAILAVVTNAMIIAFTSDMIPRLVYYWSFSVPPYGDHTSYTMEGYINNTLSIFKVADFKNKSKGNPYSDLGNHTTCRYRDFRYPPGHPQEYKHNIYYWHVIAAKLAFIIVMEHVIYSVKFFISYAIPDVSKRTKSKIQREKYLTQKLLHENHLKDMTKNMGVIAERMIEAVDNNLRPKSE
Experiment: LACT C2 assay (phosphatidylserine scramblase function assay)
Format: cell-based
Settings: test compound 1 μM, FRT cells expressing human ANO6, 10 μM ionomycin, read-out: Inhibition Level 1 μM
Endpoint: inhibition at 1 µM

// worked examples, inhibition at 1 µM included
[
  {
    "Molecule": "O=C(Nc1cccc(F)c1)c1cccc(Nc2ncc(-c3cccc(F)c3)cn2)c1 [Compound A91]",
    "inhibition at 1 µM": "≥ 60%"
  },
  {
    "Molecule": "Cc1ccc(CNC(=O)c2cccc(Nc3ncc(-c4cccs4)cn3)c2)o1 [Compound 110]",
    "inhibition at 1 µM": "30 to 60%"
  },
  {
    "Molecule": "CCOCCCNC(=O)c1cccc(Nc2ccc(-c3ccccc3)nn2)c1 [Compound A67]",
    "inhibition at 1 µM": "< 30%"
  },
  {
    "Molecule": "COC(=O)c1ccccc1CCNC(=O)c1cccc(Nc2ncc(-c3cccc(F)c3)cn2)c1 [Compound 127]",
    "inhibition at 1 µM": "< 30%"
  },
  {
    "Molecule": "O=C(NCc1ccc(F)c(Br)c1)c1cccc(Nc2ccc(-c3ccccc3)nn2)c1 [Compound 201]",
    "inhibition at 1 µM": "30 to 60%"
  },
  {
    "Molecule": "Cc1cccc(CNC(=O)c2cccc(Nc3ccc(-c4ccccc4)nn3)c2)c1 [Compound A50]",
    "inhibition at 1 µM": "30 to 60%"
  },
  {
    "Molecule": "Cc1ccc(C(C)NC(=O)c2cccc(Nc3ccc(-c4ccccc4)nn3)c2)cc1 (stereo not drawn) [Compound A57]",
    "inhibition at 1 µM": "< 30%"
  },
  {
    "Molecule": "O=C(NCCc1ccccc1)c1cccc(Nc2ccc(-c3ccccc3)cc2)c1 [Compound 50]",
    "inhibition at 1 µM": "30 to 60%"
  },
  {
    "Molecule": "Cc1ccc(CNC(=O)c2cccc(Nc3ncc(-c4cccc(F)c4)cn3)c2)cc1 [Compound A97]",
    "inhibition at 1 µM": "< 30%"
  },
  {
    "Molecule": "O=C(NCc1ccccc1Cl)c1cccc(Nc2ncc(-c3cccc(F)c3)cn2)c1 [Compound A98]",
    "inhibition at 1 µM": "30 to 60%"
  }
]

# input GET /values?readout=inhibition at 1 µM&item= Cc1ccccc1CNC(=O)c1cccc(Nc2ncc(-c3cccc(F)c3)cn2)c1 [Compound A99]
# output < 30%

# input Looking for the measured inhibition at 1 µM of O=C(NC1(c2ccc(F)cc2)CC1)c1cccc(Nc2ccc(-c3ccccc3)nn2)c1 [Compound 196] , can you help?
# output 30 to 60%

# input Could you share which inhibition at 1 µM value was measured for O=C(NC1CCCC1)c1cccc(Nc2ccc(-c3ccccc3)nn2)c1 [Compound A63] ?
# output < 30%

# input Consider the molecule O=C(Nc1ccccc1)c1cccc(Nc2ccc(-c3ccccc3)nn2)c1 [Compound A89] and give its measured inhibition at 1 µM.
# output ≥ 60%

# input # inhibition at 1 µM lookup, item Cc1ccc(CNC(=O)c2cccc(Nc3ccc(-c4ccc(Cl)cc4)nn3)c2)o1 [Compound 75]
# output 30 to 60%

# input Reported inhibition at 1 µM, molecule O=C(NC1CCCC1)c1cccc(Nc2ccc(-c3ccc(F)cc3)nn2)c1 [Compound A14] : ____
# output < 30%

# input # get_value(readout='inhibition at 1 µM', item= Cc1ccccc1CNC(=O)c1cccc(Nc2ccc(-c3ccccc3)nn2)c1 [Compound A48] )
# output 30 to 60%

# input Requested read-out: inhibition at 1 µM. Entry: O=C(NCCc1ccccc1)c1cccc(Nc2ccc(-c3ccccc3)nn2)c1 [Compound A74]
# output 30 to 60%

====

target: human ANO6 (Homo sapiens, UniProt Q4KMQ2); construct: expressed in transfected cells; experiment: LACT C2 assay (phosphatidylserine scramblase function assay); format: cell-based; settings: test compound 100 nM, FRT cells expressing human ANO6, 10 μM ionomycin, read-out: Inhibition Level 100 nM
We begin with a simple list: items and their reported inhibition at 0.1 µM.

Past entries and their recorded results:
[
  {
    "Compound": "CCN(CC)c1ccc(CNC(=O)c2cccc(Nc3ccc(-c4ccccc4)nn3)c2)cc1",
    "Endpoint": "inhibition at 0.1 µM",
    "Observed Measurement": "< 30%"
  },
  {
    "Compound": "O=C(N[C@@H]1C[C@H]1c1ccccc1)c1cccc(Nc2ccc(-c3cccnc3)cc2)c1",
    "Endpoint": "inhibition at 0.1 µM",
    "Observed Measurement": "≥ 60%"
  },
  {
    "Compound": "O=C(N[C@@H]1C[C@H]1c1ccccc1)c1cccc(Nc2nnc(-c3ccccc3)o2)c1",
    "Endpoint": "inhibition at 0.1 µM",
    "Observed Measurement": "< 30%"
  }
]

API: the following record is the query input.
# input Hi! What's the reported inhibition at 0.1 µM for O=C(N[C@@H]1C[C@H]1c1ccccc1)c1cccc(Nc2ccc(-c3ccccn3)cc2)c1 on human ANO6 (Homo sapiens, UniProt Q4KMQ2)?
# output ≥ 60%

====

target: human ANO6 (Homo sapiens); construct: expressed in transfected cells; assay: LACT C2 assay (phosphatidylserine scramblase function assay); type: cell-based; conditions: test compound 100 nM, FRT cells expressing human ANO6, 10 μM ionomycin, read-out: Inhibition Level 100 nM
Endpoint: inhibition at 0.1 µM

See these solved cases before continuing.
[
  {
    "Molecule": "O=C(Nc1cccc(F)c1)c1cccc(Nc2ccc(-c3cccnc3)cc2)c1",
    "inhibition at 0.1 µM": "≥ 60%"
  },
  {
    "Molecule": "O=C(NCCCc1ccccc1)c1cccc(Nc2ccc(-c3ccccc3)nn2)c1",
    "inhibition at 0.1 µM": "30 to 60%"
  },
  {
    "Molecule": "O=C(Nc1cccc(F)c1)c1cccc(Nc2nnc(-c3ccccc3)o2)c1",
    "inhibition at 0.1 µM": "< 30%"
  }
]

# input Query (molecule): O=C(NCc1ccccc1Cl)c1cccc(Nc2ncc(-c3cccc(F)c3)cn2)c1 ; field requested: inhibition at 0.1 µM
# output < 30%

# input // query inhibition at 0.1 µM value for entry O=C(Nc1ccccc1)c1cccc(Nc2ccc(-c3ccccc3)nn2)c1
# output 30 to 60%

# input For the molecule shown here, O=C(Nc1nnc(-c2ccccc2)[nH]1)c1cccc(Nc2ncc(-c3cccc(F)c3)cn2)c1 , give the reported inhibition at 0.1 µM.
# output < 30%

# input What does the record list as inhibition at 0.1 µM for CCCNC(=O)c1cccc(Nc2ccc(-c3ccccc3)nn2)c1 ?
# output < 30%

# input Could you share which inhibition at 0.1 µM value was measured for CC(C)CNC(=O)c1cccc(Nc2ccc(-c3ccccc3)nn2)c1 ?
# output < 30%

# input What does the data say about its inhibition at 0.1 µM? Entry: CCC(C)NC(=O)c1cccc(Nc2ccc(-c3ccccc3)nn2)c1 (stereo not shown)
# output < 30%

# input Give the measured inhibition at 0.1 µM of Cc1ccccc1CNC(=O)c1cccc(Nc2ccc(-c3ccc(F)cc3)nn2)c1 .
# output < 30%
